Listed below: MIC values for each entry.
tested on: Staphylococcus aureus ATCC 33591 (methicillin-resistant); experiment: Broth microdilution MIC; type: cell-based; details: Staphylococcus aureus, ATCC33591, read-out: Minimum Inhibitory Concentrations (MIC)
Give a bare numeral; the unit µM is implied.

[[record]]
compound = "CCCCCCCCCCCCNC1C[N+]2(CCCCCC[N+]34CCC(CC3)C(NCCCCCCCCCCCC)C4)CCC1CC2 (racemic)"
measured_on = "Staphylococcus aureus ATCC 33591 (methicillin-resistant)"
measured_metric = "MIC"
unit_string = "µM"
quantitative_result = 19

[[record]]
compound = "CCCCCCCCCCCCNC1C[N+]2(CCCC[N+]34CCC(CC3)C(NCCCCCCCCCCCC)C4)CCC1CC2 (racemic)"
measured_on = "Staphylococcus aureus ATCC 33591 (methicillin-resistant)"
measured_metric = "MIC"
unit_string = "µM"
quantitative_result = 75

[[record]]
compound = "CCCCCCCCCCCCCCCCNC1C[N+]2(CCC[N+]34CCC(CC3)C(NCCCCCCCCCCCCCCCC)C4)CCC1CC2 (racemic)"
measured_on = "Staphylococcus aureus ATCC 33591 (methicillin-resistant)"
measured_metric = "MIC"
unit_string = "µM"
quantitative_result = 19


Now look at this entry.
Look up MIC: CCCCCCCCCCCCCCCCNC1C[N+]2(CCCC[N+]34CCC(CC3)C(NCCCCCCCCCCCCCCCC)C4)CCC1CC2 (racemic)
9

These entries and their values trace back to paper PMC12473123.
